The reported measurements were obtained from patent US4868290A.

Let's go through some MIC measurements on Strept. agalactiae 1020 together.
assay_metric: MIC (µg/mL)

1) C=C1CC(C)OC(OCC2/C=C(C)/C=C/C(=O)C(C)CC(C)C(OC3OC(C)C(O)C(N(C)C)C3O)C(C)C(OC(=O)CC)CC(=O)OC2CC)C1OC (stereo not shown) [Compound 5] :: 0.2
2) CCC1OC(=O)CC(O)C(C)C(OC2OC(C)CC(N(C)C)C2O)C(C)CC(C)C(=O)/C=C/C(C)=C/C1COC1OC(C)C=C(OC)C1OC (stereo not shown) [Compound 2] :: 0.39
3) CCC1OC(=O)CC(O)C(C)C(OC2OC(C)C(O)C(N(C)C)C2O)C(C)CC(C)C(=O)/C=C/C(C)=C/C1COC1OC(C)CC(=O)C1OC (stereo not shown) [Compound 1] :: 0.39
4) C=C1CC(C)OC(OCC2/C=C(C)/C=C/C(=O)C(C)CC(C)C(OC3OC(C)C(O)C(N(C)C)C3O)C(C)C(OC(=O)N(C)C)CC(=O)OC2CC)C1OC (stereo not shown) [Compound 6] :: 0.2
5) CCC1OC(=O)CC(O)C(C)C(OC2OC(C)C(O)C(N(C)C)C2O)C(CC=O)CC(C)C(=O)/C=C/C(C)=C/C1COC1OC(C)C(O)C(OC)C1OC (stereo not shown) [Des, Desmycosin (4'-demycarosyltylosin), reference compound] :: 0.2
6) C=C1CC(C)OC(OCC2/C=C(C)/C=C/C(=O)C(C)CC(C)C(OC3OC(C)C(O)C(N(C)C)C3O)C(C)C(O)CC(=O)OC2CC)C1OC (stereo not shown) [Compound 3] :: 0.1
